# experiment_description: Bfl-1 counter-screen inhibitors, SAR follow-up, counter-screen for UBC13 polyubiquitination inhibitor project, biochemical, set 4 (AID 602400)
# assay_conditions: Bfl-1 counterscreen for UBC13 inhibitors
Calls of active or inactive are those of the source. How the calls were made is not given here.
Output constraint: value belongs to Y for active, N for inactive

// below: answered compounds
compound	category_label
O=C(NCCCN1CCN(c2ccc(F)cc2)CC1)C1CCCN(c2ncnc3c2nc2n3CCCCC2)C1 (centres undefined)	N
Cc1ccc(C)c(N2CCN(CCCNC(=O)C3CCCN(c4ncnc5c4nc4n5CCCCC4)C3)CC2)c1 (centres undefined)	N
COc1ccc(Cl)cc1NC(=O)C1CCN(c2ncnc3c2nc2n3CCCCC2)CC1	N
Cc1cc(C)cc(NC(=O)C2CCCN(c3ncnc4c3nc3n4CCCCC3)C2)c1 (centres undefined)	N
O=C(C1CCN(c2ncnc3c2nc2n3CCCCC2)CC1)N1CCC(Cc2ccccc2)CC1	N

Short answer needed: outcome of this test for CCC1CCCCN1CCCNC(=O)C1CCN(c2ncnc3c2nc2n3CCCCC2)CC1 (centres undefined) ?
N

Then what about the compound O=C(NCc1cccc(Cl)c1)C1CCCN(c2ncnc3c2nc2n3CCCC2)C1 (centres undefined) ?
N

Then what about the compound O=C(NCC1CCN(Cc2ccc(Cl)cc2)CC1)C1CCCN(c2ncnc3c2nc2n3CCCC2)C1 (centres undefined) ?
Y

Then what about the compound Cc1ccc(NC(=O)C2CCCN(c3ncnc4c3nc3n4CCCCC3)C2)cc1Br (centres undefined) ?
N
